Assay remarks: plasmodial surface anion channel blockers, osmotic lysis – cell-based, P. falciparum Indochina, OD700, 18 h, primary screen (AID 1157)
Measurement parameters: P. falciparum Indochina infected erythrocytes, osmotic lysis OD700, 18 h; higher = more signal, called active from +8 up or from −8 down
Measured endpoint: z-score
A bare number is all that is needed in reply.

Input COC(=O)c1c(CC[C@@H](CO)NC(=O)N[C@@H](C)Cn2cc(-c3ccccn3)nn2)oc(C(C)=O)c1C(=O)OC . Output z-score: -1.08

Input COc1ccc([Si](C)(C)[C@@H]2[C@@H](CC(=O)N3CCC[C@H]3CO)O[C@]3(C(=O)N(Cc4cccc(N5C(=O)COc6ccccc65)c4)c4ccccc43)[C@H]2C)cc1 . Output z-score: 0.646

Input COc1cc(OC)c(C(O)C2C=CC3C(=O)N(Cc4ccccc4)C(=O)C3N2n2cnnc2)cc1Br (stereo not drawn) . Output z-score: -2.29

Input COc1ccc(CCNC(=O)[C@@]2(Cc3ccccc3I)c3ccccc3C(=O)N(C3CCCCC3)[C@H]2c2ccc(CO)cc2)cc1 . Output z-score: -0.31

Input COc1cccc(C)c1NC(=O)O[C@H]1[C@H](OC(=O)Nc2ccc3c(c2)OCO3)[C@@H](OC(=O)Nc2ccc3c(c2)OCO3)[C@@H](OC)O[C@@H]1CO . Output z-score: 0.349

Input Cc1ccc(S[C@]2(C(=O)NCC(F)(F)F)CC(=O)N(Cc3cc(C(F)(F)F)cc(C(F)(F)F)c3)[C@@H]2c2ccc(CO)cc2I)cc1 . Output z-score: 0.449

Input C=C[C@@H](OC)[C@H](OC(=O)Nc1ccc(OC)cc1)c1ccc(O)c(F)c1 . Output z-score: 0.475

Input CCCCNC(=O)c1ccc(C#CC(C)(C)C)c(OC(C)=O)c1 . Output z-score: 0.181
